Data credit: paper PMC7616175

Study Target: hM1 mAChR (Homo sapiens, UniProt P11229)
Sequence (P11229 1-460): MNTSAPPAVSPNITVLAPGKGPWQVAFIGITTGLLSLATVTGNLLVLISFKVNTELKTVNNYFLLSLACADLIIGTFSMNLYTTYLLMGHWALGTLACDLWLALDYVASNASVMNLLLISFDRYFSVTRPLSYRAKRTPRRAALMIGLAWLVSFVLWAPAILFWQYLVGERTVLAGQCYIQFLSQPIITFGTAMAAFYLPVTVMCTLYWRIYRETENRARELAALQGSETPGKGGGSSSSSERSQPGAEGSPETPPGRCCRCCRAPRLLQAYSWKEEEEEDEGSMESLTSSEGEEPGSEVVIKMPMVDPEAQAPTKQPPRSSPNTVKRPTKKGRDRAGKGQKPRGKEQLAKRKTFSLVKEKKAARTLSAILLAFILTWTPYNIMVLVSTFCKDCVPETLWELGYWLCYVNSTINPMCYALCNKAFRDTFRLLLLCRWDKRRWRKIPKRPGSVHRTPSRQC
Protocol Description: IP1 accumulation assay in FlpInCHO-hM1
Assay type: cell-based
Condition Context: operational model of allosterism (eq 2), pKB fixed to binding value
Entries whose log τB (logarithm of the operational efficacy parameter of the allosteric modulator) is below 0.4 take label 1; entries at or above 0.4 take label 0.

*Q* I'd appreciate it if you could check whether O=c1cc(-c2ccccc2OCc2ccccc2)ncn1C1CCCCC1O (stereo not drawn) has log τB (logarithm of the operational efficacy parameter of the allosteric modulator) smaller than 0.4.
*A* label 1

*Q* I'd appreciate it if you could check whether Cc1ccc(COc2ccccc2-c2cc(=O)n(C3CCCCC3O)cn2)cn1 (stereo not drawn) has log τB (logarithm of the operational efficacy parameter of the allosteric modulator) smaller than 0.4.
*A* label 1

*Q* I'd appreciate it if you could check whether NC(=O)c1ccc(COc2ccccc2-c2cc(=O)n(C3CCCCC3O)cn2)cc1 (stereo not drawn) [Compound 14b] has log τB (logarithm of the operational efficacy parameter of the allosteric modulator) smaller than 0.4.
*A* label 0

*Q* I'd appreciate it if you could check whether CCN(CC)C(=O)c1ccc(COc2ccccc2-c2cc(=O)n(C3CCCCC3O)cn2)cc1 (stereo not drawn) [Compound 15c] has log τB (logarithm of the operational efficacy parameter of the allosteric modulator) smaller than 0.4.
*A* label 1

*Q* I'd appreciate it if you could check whether Cn1cc(-c2ccc(COc3ccccc3-c3cc(=O)n(C4CCCCC4O)cn3)cc2)cn1 (stereo not drawn) has log τB (logarithm of the operational efficacy parameter of the allosteric modulator) smaller than 0.4.
*A* label 0

*Q* I'd appreciate it if you could check whether CCNC(=O)c1ccc(COc2ccccc2-c2cc(=O)n(C3CCCCC3O)cn2)cc1 (stereo not drawn) [Compound 15d] has log τB (logarithm of the operational efficacy parameter of the allosteric modulator) smaller than 0.4.
*A* label 0

====

Study Target: hM1 mAChR (Homo sapiens)
Sequence (P11229 1-460): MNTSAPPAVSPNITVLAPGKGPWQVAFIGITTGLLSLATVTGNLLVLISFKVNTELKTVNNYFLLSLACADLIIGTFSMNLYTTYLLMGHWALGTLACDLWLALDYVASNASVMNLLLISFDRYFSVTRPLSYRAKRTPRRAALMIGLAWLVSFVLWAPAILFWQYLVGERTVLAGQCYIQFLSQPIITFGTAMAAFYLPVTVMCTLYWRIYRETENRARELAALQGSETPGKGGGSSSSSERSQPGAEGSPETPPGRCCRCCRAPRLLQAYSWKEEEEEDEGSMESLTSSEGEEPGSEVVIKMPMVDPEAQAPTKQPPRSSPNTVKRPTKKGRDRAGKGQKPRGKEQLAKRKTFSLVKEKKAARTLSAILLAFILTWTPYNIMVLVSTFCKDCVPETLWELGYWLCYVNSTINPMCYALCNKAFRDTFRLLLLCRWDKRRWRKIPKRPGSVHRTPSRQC
Protocol Description: IP1 accumulation assay in FlpInCHO-hM1
Assay type: cell-based
Condition Context: 1 and 10 μM modulator, compared with BQCA, CHO-M1 cells
Observation Type: cluster of two-point profile (change in baseline versus change in pEC50)

*Q* For O=c1cc(-c2ccccc2OCc2ccc(-c3cn[nH]c3)cc2)ncn1C1CCCCC1O (stereo not shown) , what is its reported cluster of two-point profile (change in baseline versus change in pEC50)?
*A* cluster 2

*Q* For Cn1cc(-c2ccc(COc3ccccc3-c3cc(=O)n(C4CCCCC4O)cn3)cc2)cn1 (stereo not shown) , what is its reported cluster of two-point profile (change in baseline versus change in pEC50)?
*A* cluster 2
